Assay System: human dopamine D3 receptor (Homo sapiens (Human))
Sequence (P35462 whole entry): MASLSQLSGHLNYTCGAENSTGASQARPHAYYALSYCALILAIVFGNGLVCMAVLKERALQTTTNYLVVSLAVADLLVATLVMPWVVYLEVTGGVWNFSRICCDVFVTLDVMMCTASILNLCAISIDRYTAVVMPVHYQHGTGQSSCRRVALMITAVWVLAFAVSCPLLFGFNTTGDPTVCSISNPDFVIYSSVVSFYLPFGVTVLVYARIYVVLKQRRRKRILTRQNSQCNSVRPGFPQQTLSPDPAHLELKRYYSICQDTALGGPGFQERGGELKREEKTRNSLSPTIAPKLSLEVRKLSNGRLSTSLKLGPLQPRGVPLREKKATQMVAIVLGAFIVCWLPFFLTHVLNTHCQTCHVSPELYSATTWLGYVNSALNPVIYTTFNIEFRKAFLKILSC
Assay Method Text: Human D2-like receptor competition binding in HEK cells, D3
Test Context: HEK cells, hD3; read-out: D3 Ki
From the text: Human dopamine D2-long (D2) and D3 (D3) receptors were expressed in HEK cells. In brief, stably transfected HEK cells expressing the human D2-long and the D3 dopamine receptor were developed using the pIRES bicistronic expression vector (CLONTECH; Palo Alto, Calif.). […] For comparison, human dopamine D4 (D4) receptors were obtained from HEK 293 cells stably transfected with a PCR product of a human cDNA coding for the D4.4 form of the human D4 dopamine receptor. […]
Listed molecules paired with reported Ki
Measured Endpoint: Ki (nM)

{"Molecule": "O=C(NCCC(O)CN1CCN(c2cccc(Cl)c2Cl)CC1)c1ccc2c(c1)Cc1ccccc1-2 (stereo not drawn) [Compound 17]", "Observed Result": 1.8}
{"Molecule": "COc1ccccc1N1CCN(CC(O)CCNC(=O)c2cc3ccccc3[nH]2)CC1 (stereo not drawn) [Compound 35]", "Observed Result": 1.37}
{"Molecule": "COc1ccccc1N1CCN(CC(O)CCNC(=O)c2cc3ccccc3o2)CC1 (stereo not drawn) [Compound 43]", "Observed Result": 5.4}
